// provenance: BindingDB's records for doi:10.1016/j.ejmech.2016.11.024

Assignment: determine reported IC50 for the given molecules.
# subject-of-test: Proteasome subunit beta type-1 (Homo sapiens, UniProt P20618)
# Sequence (P20618 whole entry): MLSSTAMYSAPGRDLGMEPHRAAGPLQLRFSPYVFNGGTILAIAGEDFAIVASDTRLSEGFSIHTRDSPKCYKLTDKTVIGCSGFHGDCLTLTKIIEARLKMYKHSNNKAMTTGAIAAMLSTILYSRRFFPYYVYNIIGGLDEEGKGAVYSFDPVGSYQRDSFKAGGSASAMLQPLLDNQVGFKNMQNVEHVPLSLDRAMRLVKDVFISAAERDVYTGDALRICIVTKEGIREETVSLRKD
# experimental-protocol: Inhibition of PGPH activity of human 20S proteasome using (Z)-LLE-bNA as substrate by fluorometric method
Give bare numbers, in µM.

Known IC50 results, listed for orientation:
>>> reported_measurement("CC[C@H](C)[C@H](/N=C(/Nc1cccc(C(F)(F)F)c1)SC)C(=O)N[C@H](Cc1ccccc1)C(=O)Nc1cccc(C(F)(F)F)c1")
22.6
>>> reported_measurement("CC[C@H](C)[C@H](NC(=S)Nc1cccc([N+](=O)[O-])c1)C(=O)N[C@H](Cc1ccccc1)C(=O)Nc1cccc(C(F)(F)F)c1")
35

Now take the following molecule into account.
Challenge: Please report the recorded IC50 for "CC[C@H](C)[C@H](NC(=S)Nc1ccc(C(F)(F)F)cc1)C(=O)N[C@H](Cc1ccccc1)C(=O)Nc1cccc(Br)c1" .
Response given: 22.7

* * *

# subject-of-test: Proteasome subunit beta type-2 (Homo sapiens, UniProt P49721)
# Sequence (P49721 whole entry): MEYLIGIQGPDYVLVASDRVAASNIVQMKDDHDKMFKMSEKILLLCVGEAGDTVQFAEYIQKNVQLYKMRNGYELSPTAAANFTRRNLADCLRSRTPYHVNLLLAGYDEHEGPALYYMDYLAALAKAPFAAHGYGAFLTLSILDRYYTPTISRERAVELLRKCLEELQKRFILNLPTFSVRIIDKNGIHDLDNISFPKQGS
# experimental-protocol: Inhibition of trypsin-like activity of human 20S proteasome using Bz-VGR-AMC as substrate by fluorometric method
readout-kind: IC50

Challenge: Please report the recorded IC50 for "CC[C@H](C)[C@H](NC(=S)Nc1ccc(C(F)(F)F)cc1)C(=O)N[C@H](Cc1ccccc1)C(=O)Nc1cccc(Br)c1" .
Response given: > 50 µM
